target.under.test: mAChR M4 (Homo sapiens, UniProt P08173)
Construct: expressed in transfected cells; host or cells: CHO-K1 cells stably transfected with M4 cDNA and chimeric G-protein Gqi5
Sequence (P08173 1-479): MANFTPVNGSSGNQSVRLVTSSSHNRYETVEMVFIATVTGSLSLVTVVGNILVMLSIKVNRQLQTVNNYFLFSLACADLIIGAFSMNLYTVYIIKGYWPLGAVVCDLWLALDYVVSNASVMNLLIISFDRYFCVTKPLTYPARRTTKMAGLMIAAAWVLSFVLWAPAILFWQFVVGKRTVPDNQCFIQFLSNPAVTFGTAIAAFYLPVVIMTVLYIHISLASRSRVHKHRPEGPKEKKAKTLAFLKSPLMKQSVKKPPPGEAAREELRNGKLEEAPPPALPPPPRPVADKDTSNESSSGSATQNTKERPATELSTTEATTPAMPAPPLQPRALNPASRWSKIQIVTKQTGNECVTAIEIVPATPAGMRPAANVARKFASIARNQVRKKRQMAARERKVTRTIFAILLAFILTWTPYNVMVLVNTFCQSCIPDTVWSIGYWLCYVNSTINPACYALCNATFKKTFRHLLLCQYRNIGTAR
protocol.notes: mAChR M4 cell-based functional assay (calcium mobilization, potentiation of EC20 acetylcholine response)
applied.conditions: mAChR M4 cell-based functional assay; >10,000 estimated for low potency compounds without plateau; read-out: EC50
reported.property: EC50 (nM)

Please give measured EC50 of the following entry: `Cc1nnc2sc(C(=O)NC3CN(S(=O)(=O)c4cn(C)cn4)C3)c(N)c2c1C`
1000

Please give measured EC50 of the following entry: `Cc1nnc2sc(C(=O)NCc3ccc(-n4ccnc4)cc3)c(N)c2c1C`
20

1 = Cc1nnc2sc(C(=O)NC3CCN(C(=O)C4CCC4)C3)c(N)c2c1C (stereo not drawn)
2 = Cc1nnc2sc(C(=O)N3CC4CN(c5ccccn5)CC4C3)c(N)c2c1C (stereo not drawn)
Lab note: check whether 1 or 2 has the lower measured EC50. // output: label of the selected item
2

I = Cc1ccc(S(=O)(=O)N2CCCN(C(=O)c3sc4nnc(C)c(C)c4c3N)CC2)cc1
II = CC(O)(c1ccc(CNC(=O)c2sc3nnc4c(c3c2N)CCCC4)cc1)C(F)(F)F (stereo not drawn)
III = Cc1cccc(S(=O)(=O)N2CC(NC(=O)c3sc4nnc(C)c(C)c4c3N)C2)c1
IV = Cc1nnc2sc(C(=O)NCCNC(=O)c3ccc(F)cc3)c(N)c2c1C
List these items ordered by EC50, big to small. # list labels per requested ordering
I, II, IV, III

A = Cc1nnc2sc(C(=O)NC3CN(C(=O)Oc4ccc(C(C)C)cc4)C3)c(N)c2c1C
B = Cc1nnc2sc(C(=O)N3CC(F)(C4CCCCC4)C3)c(N)c2c1C
C = Cc1nnc2sc(C(=O)N3CCC(NC(=O)C4CC4)C3)c(N)c2c1C (stereo not drawn)
List these items ordered by EC50, big to small. # list labels per requested ordering
C, B, A
(C: 5000 nM, B: 280 nM, A: 54 nM)

I = Cc1nnc2sc(C(=O)NCc3ccc(S(=O)(=O)C(C)(F)F)cc3)c(N)c2c1C
II = Cc1nnc2sc(C(=O)N3CC(F)(c4ccc(-c5cccnc5)cc4)C3)c(N)c2c1C
// pick larger EC50 from pair: I vs II // output: label of the selected item
II
(II: 130 nM, I: 10 nM)

P = Cc1nnc2sc(C(=O)NCc3ccc([S+]([O-])C(F)F)cc3)c(N)c2c1C (single isomer, unassigned) [Example B510]
Q = Cc1nnc2sc(C(=O)NC3CCN(c4ccncc4)C3)c(N)c2c1C (stereo not drawn)
R = Cc1nnc2sc(C(=O)NC3CCN(C(=O)c4ccc(F)cc4F)C3)c(N)c2c1C (stereo not drawn)
S = Cc1nnc2sc(C(=O)N[C@H]3CCN(c4ccccc4)C3)c(N)c2c1C
Order the records, beginning with the lowest EC50 and ending with the highest. # list labels per requested ordering
S, Q, R, P

P = Cc1nnc2sc(C(=O)NCc3ccc(-c4cc(C)c5[nH]ncc5c4)cc3)c(N)c2c1C
Q = Cc1nnc2sc(C(=O)NCc3ccc(CN4CCOCC4)cc3)c(N)c2c1C
Lab note: check whether P or Q has the lower measured EC50. // output: label of the selected item
Q
(Q: 80 nM, P: 460 nM)
